For each entry below, report its fractional inhibitory concentration index (FICI) value.
target: ATP-dependent translocase ABCB1 (Homo sapiens); assay: Inhibition of human ABCB1 expressed in mouse L5178 cells assessed as 50% inhibition of cell proliferation at compound-doxorubicin ratio of 40.8:1 after 48 hrs by MTT assay; format: cell-based; details: l5178, 48 h
One number for each entry.

compound	study.system	recorded.number
CC(C)[C@@H](O)C[C@@H](O)[C@](C)(O)[C@H]1CC[C@@]2(O)C3=CC(=O)[C@@H]4C[C@@H](O)[C@@H](O)C[C@]4(C)[C@H]3CC[C@]12C [PTEROSTERONE]	ATP-dependent translocase ABCB1 (Homo sapiens)	1.32
C=C(C)C(C[C@@H](O)[C@](C)(O)[C@H]1CC[C@@]2(O)C3=CC(=O)[C@]4(O)C[C@@H](O)[C@@H](O)C[C@]4(C)[C@H]3CC[C@]12C)C(C)O (stereo partly drawn) [AJUGASTERONE B]	ATP-dependent translocase ABCB1 (Homo sapiens)	1.21

Form: compound = CC(C)CC[C@@H](O)[C@](C)(O)[C@H]1CC[C@@]2(O)C3=CC(=O)[C@@H]4C[C@@H](O)[C@@H](O)C[C@]4(C)C3=CC[C@]12C [DACRYHAINANSTERONE] ; fractional inhibitory concentration index (FICI) = 1.76

###

For each entry below, report its fractional inhibitory concentration index (FICI) value.
target: ATP-dependent translocase ABCB1 (Homo sapiens, UniProt P08183); assay: Inhibition of human ABCB1 expressed in mouse L5178 cells assessed as 50% inhibition of cell proliferation at compound-doxorubicin ratio of 81.5:1 after 48 hrs by MTT assay; format: cell-based; conditions: l5178, 48 h
Sequence (P08183 whole entry): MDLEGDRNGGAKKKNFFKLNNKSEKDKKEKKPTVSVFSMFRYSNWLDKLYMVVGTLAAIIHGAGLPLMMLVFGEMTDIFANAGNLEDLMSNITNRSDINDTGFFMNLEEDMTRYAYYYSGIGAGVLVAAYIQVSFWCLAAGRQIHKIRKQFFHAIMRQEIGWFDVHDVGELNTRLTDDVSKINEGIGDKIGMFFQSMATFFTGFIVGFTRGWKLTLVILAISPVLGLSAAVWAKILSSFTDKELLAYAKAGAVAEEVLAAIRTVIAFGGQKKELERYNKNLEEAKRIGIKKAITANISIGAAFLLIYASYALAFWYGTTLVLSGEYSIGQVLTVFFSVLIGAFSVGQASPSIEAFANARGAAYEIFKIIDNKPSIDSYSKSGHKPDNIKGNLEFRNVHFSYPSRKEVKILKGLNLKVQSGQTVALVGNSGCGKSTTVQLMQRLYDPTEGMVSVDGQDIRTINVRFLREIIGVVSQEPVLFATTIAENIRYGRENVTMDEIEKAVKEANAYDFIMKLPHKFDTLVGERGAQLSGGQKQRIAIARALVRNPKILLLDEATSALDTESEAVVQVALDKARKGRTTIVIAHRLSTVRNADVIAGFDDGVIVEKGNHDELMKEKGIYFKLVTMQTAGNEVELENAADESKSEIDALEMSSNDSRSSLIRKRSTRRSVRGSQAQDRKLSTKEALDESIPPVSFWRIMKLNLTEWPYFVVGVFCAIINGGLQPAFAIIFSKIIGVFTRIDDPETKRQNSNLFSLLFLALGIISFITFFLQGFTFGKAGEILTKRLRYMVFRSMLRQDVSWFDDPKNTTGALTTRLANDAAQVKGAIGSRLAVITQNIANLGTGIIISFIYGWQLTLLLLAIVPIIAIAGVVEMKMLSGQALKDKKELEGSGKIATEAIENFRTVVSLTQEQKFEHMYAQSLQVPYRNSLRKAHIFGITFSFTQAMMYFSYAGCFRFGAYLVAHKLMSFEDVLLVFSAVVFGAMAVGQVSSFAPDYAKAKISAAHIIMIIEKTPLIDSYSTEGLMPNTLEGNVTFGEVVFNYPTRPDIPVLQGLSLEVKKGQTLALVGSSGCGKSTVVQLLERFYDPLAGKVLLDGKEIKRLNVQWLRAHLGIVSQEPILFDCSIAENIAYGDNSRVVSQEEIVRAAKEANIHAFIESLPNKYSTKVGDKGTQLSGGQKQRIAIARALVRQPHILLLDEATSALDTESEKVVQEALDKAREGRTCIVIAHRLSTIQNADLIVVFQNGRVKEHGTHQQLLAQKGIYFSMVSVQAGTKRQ
Answers are plain numbers.

Example compounds with recorded fractional inhibitory concentration index (FICI):
> print(dat)
                                   compound  recorded.number
1  CC(C)(O)CC[C@@H](O)[C@](C)(O)[C@H]1CC[C@@]2(O)C3=CC(=O)[C@@H]4C[C@H](O)[C@@H](O)C[C@]4(C)[C@H]3CC[C@]12C             1.16
2  CC(C)(O)CC[C@@H](O)[C@](C)(O)[C@H]1CC[C@@]2(O)C3=CC(=O)[C@H]4C[C@@H](O)[C@@H](O)C[C@]4(C)[C@H]3CC[C@]12C             0.99

// below: fractional inhibitory concentration index (FICI) requested for another compound
Form: compound = C[C@H]([C@H](O)CCC(C)(C)O)[C@H]1CC[C@@]2(O)C3=CC(=O)[C@@H]4C[C@@H](O)[C@@H](O)C[C@]4(C)[C@H]3CC[C@]12C [ECDYSONE] ; fractional inhibitory concentration index (FICI) = 2.31

###

biological target: ATP-dependent translocase ABCB1 (Homo sapiens, UniProt P08183); assay: Inhibition of human ABCB1 expressed in mouse L5178 cells assessed as 95% inhibition of cell proliferation at compound-doxorubicin ratio of 81.5:1 after 48 hrs by MTT assay; format: cell-based; details: l5178, 48 h
property.label: fractional inhibitory concentration index (FICI)
Answers are plain numbers.

> print(dat)
                                 smiles.str  recorded.number
1  CC(=O)O[C@H](CCC(C)(C)O)[C@](C)(O)[C@H]1CC[C@@]2(O)C3=CC(=O)[C@@H]4C[C@@H](O)[C@@H](O)C[C@]4(C)[C@H]3CC[C@]12C             0.64
2  CC(C)(O)CC[C@H]1OC(C)(C)O[C@]1(C)[C@H]1CC[C@@]2(O)C3=CC(=O)[C@]4(O)C[C@@H](O)[C@@H](O)C[C@]4(C)[C@H]3CC[C@]12C             0.11
3  CC(=O)O[C@H](CCC(C)(C)O)[C@](C)(O)[C@H]1CC[C@@]2(O)C3=CC(=O)[C@@H]4C[C@@H](O)CC[C@]4(C)[C@H]3CC[C@]12C             0.44
4  CC(C)(O)CC[C@@H](O)[C@](C)(O)[C@H]1CC[C@@]2(O)C3=CC(=O)[C@@H]4C[C@@H](O)[C@@H](O)[C@@H](O)[C@]4(C)[C@H]3CC[C@]12C             2.42

// below: fractional inhibitory concentration index (FICI) requested for another compound
Form: compound = `CC(C)(O)CC[C@@H](O)[C@](C)(O)[C@H]1CC[C@@]2(O)C3=CC(=O)[C@H]4C[C@@H](O)[C@@H](O)C[C@]4(C)[C@H]3CC[C@]12C` ; fractional inhibitory concentration index (FICI) = 0.37

Measured values drawn from ChEMBL document CHEMBL2086273 for this set.
